# assay_comment: Metabolic stability in human liver microsomes assessed as percent of residual drug in presence of NADPH incubated for 40 mins by LC-ESI-MS/MS method
# Assay type: ADME, Microsome
# condition_notes: liver microsomes, read-out: Stability
property_name: remaining at 40 min (%)
Entry rule: numbers only, all in %.

Dear colleague, I am looking for the recorded remaining at 40 min of the following compound: C#CCN1CCC(CCn2c(Sc3cc4c(cc3Br)OCO4)nc3c(N)ncnc32)CC1 10

Dear colleague, I am looking for the recorded remaining at 40 min of the following compound: Nc1ncnc2c1nc(Sc1cc3c(cc1Br)OCO3)n2CCC1CCN(CC2CCCCC2)CC1 10

Dear colleague, I am looking for the recorded remaining at 40 min of the following compound: Nc1ncnc2c1nc(Sc1cc3c(cc1Br)OCC3)n2CCC1CCN(C=O)CC1 5

Dear colleague, I am looking for the recorded remaining at 40 min of the following compound: CC(C)C[C@H](N)C(=O)N1CCC(CCn2c(Sc3cc4c(cc3Br)OCO4)nc3c(N)ncnc32)CC1 44

Dear colleague, I am looking for the recorded remaining at 40 min of the following compound: C[C@H](O)C(=O)N1CCC(CCn2c(Sc3cc4c(cc3Br)OCO4)nc3c(N)ncnc32)CC1 42

Dear colleague, I am looking for the recorded remaining at 40 min of the following compound: Nc1ncnc2c1nc(Sc1cc3ccoc3cc1Br)n2CCC1CCN(C=O)CC1 51

Dear colleague, I am looking for the recorded remaining at 40 min of the following compound: CC(=O)N1CCC(CCn2c(Sc3cc4c(cc3Br)OCO4)nc3c(N)ncnc32)CC1 17

###

The compounds listed here are annotated with their IC50.
# target_under_test: Heat shock protein HSP90 (Homo sapiens, UniProt P07900+P08238)
# assay_comment: Inhibition of human HSP90 using BODIPY labelled geldanamycin as substrate by fluorescence polarization assay
# Type: protein assay
Entry rule: numbers only, all in nM.

Reference set, count: 3
{"compound": "Nc1ncnc2c1nc(Sc1cc3c(cc1Br)OCO3)n2CCC1CCN(C(=O)C2CC2)CC1", "IC50 [nM]": 110}
{"compound": "Nc1ncnc2c1nc(Sc1cc3c(cc1Br)OCO3)n2CCC(N)C1CC1 (stereo not given)", "IC50 [nM]": 80}
{"compound": "C[C@H](O)C(=O)N1CCC(CCn2c(Sc3cc4c(cc3Br)OCO4)nc3c(N)ncnc32)CC1", "IC50 [nM]": 140}

Dear colleague, I am looking for the recorded IC50 of the following compound: Nc1ncnc2c1nc(Sc1cc3c(cc1Br)OCO3)n2CCC1CCN(C(=O)[C@@H]2CCCN2)CC1 60

Dear colleague, I am looking for the recorded IC50 of the following compound: CC(=O)N1CCC(CCn2c(Sc3cc4c(cc3Br)OCO4)nc3c(N)ncnc32)CC1 60

###

The molecules listed here are annotated with their AUC.
# assay_comment: AUC in Swiss nude mouse at 10 mg/kg, po by LC-ESI-MS/MS method
# Type: ADME, organism-based
# Set-up: dose 10 mg/kg, route oral
# condition_notes: plasma
Entry rule: numbers only, all in ng·h/mL.

Reference set, count: 3
{"molecular_string": "Nc1ncnc2c1nc(Sc1cc3occc3cc1Br)n2CCC1CCN(C=O)CC1", "result_number": 4610}
{"molecular_string": "Nc1ncnc2c1nc(Sc1cc3c(cc1Br)OCO3)n2CCC1CCN(C=O)CC1", "result_number": 1810}
{"molecular_string": "Nc1ncnc2c1nc(Sc1cc3c(cc1Br)OCCO3)n2CCC1CCN(C=O)CC1", "result_number": 1180}

Dear colleague, I am looking for the recorded AUC of the following molecule: C[C@@H](O)C(=O)N1CCC(CCn2c(Sc3cc4c(cc3Br)OCCO4)nc3c(N)ncnc32)CC1 1960

Dear colleague, I am looking for the recorded AUC of the following molecule: C[C@H](O)C(=O)N1CCC(CCn2c(Sc3cc4c(cc3Br)OCCO4)nc3c(N)ncnc32)CC1 1190

###

The compounds listed here are annotated with their half-life.
# assay_comment: Half life in Swiss nude mouse at 2.5 mg/kg, iv by LC-ESI-MS/MS method
# Format: ADME, organism-based
# Set-up: dose 2.5 mg/kg, route intravenous
# condition_notes: in vivo
Answer format: number, then unit.

Reference set, count: 2
{"molecular_string": "Nc1ncnc2c1nc(Sc1cc3c(cc1Br)OCCO3)n2CCC1CCN(C=O)CC1", "result": "16.8 min"}
{"molecular_string": "Nc1ncnc2c1nc(Sc1cc3c(cc1Br)OCCO3)n2CCC1CCN(C(=O)CO)CC1", "result": "51 min"}

Dear colleague, I am looking for the recorded half-life of the following compound: Nc1ncnc2c1nc(Sc1cc3occc3cc1Br)n2CCC1CCN(C=O)CC1 18 min

###

# assay_comment: Metabolic stability in human liver microsomes assessed as percent of residual drug in presence of NADPH incubated for 40 mins by LC-ESI-MS/MS method
# Format: ADME, Microsome
# condition_notes: liver microsomes, read-out: Stability
The compounds listed here are annotated with their remaining at 40 min.
Entry rule: numbers only, all in %.

Dear colleague, I am looking for the recorded remaining at 40 min of the following compound: C[C@H](O)C(=O)N1CCC(CCn2c(Sc3cc4c(cc3Br)OCCO4)nc3c(N)ncnc32)CC1 45

Dear colleague, I am looking for the recorded remaining at 40 min of the following compound: Nc1ncnc2c1nc(Sc1cc3c(cc1Br)OCCO3)n2CCC1CCN(C(=O)CO)CC1 45

Dear colleague, I am looking for the recorded remaining at 40 min of the following compound: Nc1ncnc2c1nc(Sc1cc3c(cc1Br)OCO3)n2CCC1CCC(F)(F)CC1 15

###

# assay_comment: Oral bioavailability in Swiss nude mouse at 10 mg/kg by LC-ESI-MS/MS method
# Assay type: ADME, organism-based
# condition_notes: in vivo
The compounds listed here are annotated with their bioavailability.
Entry rule: numbers only, all in %.

{"molecular_string": "Nc1ncnc2c1nc(Sc1cc3c(cc1Br)OCCO3)n2CCC1CCN(C(=O)CO)CC1", "property_name": "bioavailability", "result_number": 34}
{"molecular_string": "C[C@H](O)C(=O)N1CCC(CCn2c(Sc3cc4c(cc3Br)OCO4)nc3c(N)ncnc32)CC1", "property_name": "bioavailability", "result_number": 38}

For the next question, use this compound.
Dear colleague, I am looking for the recorded bioavailability of the following compound: Nc1ncnc2c1nc(Sc1cc3c(cc1Br)OCCO3)n2CCC1CCN(C=O)CC1 30

###

# target_under_test: Heat shock protein HSP90 (Homo sapiens, UniProt P07900+P08238)
# assay_comment: Inhibition of human HSP90 in HCT116 cells expressing Her2 gene assessed as degradation of Her2 after 4 hrs by luciferase reporter gene assay
# Type: cell-based
# condition_notes: hct-116
# label = rule met if IC50 < 0.08 µM else rule not met

{"molecular_string": "C[C@H](O)C(=O)N1CCC(CCn2c(Sc3cc4c(cc3Br)OCCO4)nc3c(N)ncnc32)CC1", "class": "rule met"}
{"molecular_string": "Nc1ncnc2c1nc(Sc1cc3c(cc1Br)OCO3)n2CCC1CCOCC1", "class": "rule not met"}
{"molecular_string": "Nc1ncnc2c1nc(Sc1cc3c(cc1Br)OCO3)n2CCC1CCN(CC2CCCCC2)CC1", "class": "rule not met"}
{"molecular_string": "CC(C)CN1CCC(CCn2c(Sc3cc4c(cc3Br)OCO4)nc3c(N)ncnc32)CC1", "class": "rule not met"}
{"molecular_string": "Nc1ncnc2c1nc(Sc1cc3c(cc1Br)OCO3)n2CCc1ccccc1F", "class": "rule met"}
{"molecular_string": "CC(=O)C(=O)N1CCC(CCn2c(Sc3cc4c(cc3Br)OCO4)nc3c(N)ncnc32)CC1", "class": "rule met"}

Lab note: confirm whether the reported IC50 for this compound is below 0.08 µM, equality not counting. compound: CC(C)C[C@H](N)C(=O)N1CCC(CCn2c(Sc3cc4c(cc3Br)OCO4)nc3c(N)ncnc32)CC1 rule not met

Lab note: confirm whether the reported IC50 for this compound is below 0.08 µM, equality not counting. compound: Nc1ncnc2c1nc(Sc1cc3c(cc1Br)OCO3)n2CCC1CCN(C(=O)[C@@H]2CCCN2)CC1 rule not met

Lab note: confirm whether the reported IC50 for this compound is below 0.08 µM, equality not counting. compound: Nc1ncnc2c1nc(Sc1cc3occc3cc1Br)n2CCC1CCN(C=O)CC1 rule met

Lab note: confirm whether the reported IC50 for this compound is below 0.08 µM, equality not counting. compound: Nc1ncnc2c1nc(Sc1cc3c(cc1Br)OCO3)n2CCc1ccccc1Cl rule met

Lab note: confirm whether the reported IC50 for this compound is below 0.08 µM, equality not counting. compound: Nc1ncnc2c1nc(Sc1cc3c(cc1Br)OCO3)n2CCC1CCN(C(=O)C2CC2)CC1 rule not met

Lab note: confirm whether the reported IC50 for this compound is below 0.08 µM, equality not counting. compound: Nc1ncnc2c1nc(Sc1cc3c(cc1Br)OCO3)n2CCC1CCN(C(=O)CO)CC1 rule met

Lab note: confirm whether the reported IC50 for this compound is below 0.08 µM, equality not counting. compound: Cn1nnnc1N1CCC(CCn2c(Sc3cc4c(cc3Br)OCO4)nc3c(N)ncnc32)CC1 rule met
